Reference source: ChEMBL document CHEMBL1145766

TARGET_ENTITY: UniProt P35348
Sequence (P35348 whole entry): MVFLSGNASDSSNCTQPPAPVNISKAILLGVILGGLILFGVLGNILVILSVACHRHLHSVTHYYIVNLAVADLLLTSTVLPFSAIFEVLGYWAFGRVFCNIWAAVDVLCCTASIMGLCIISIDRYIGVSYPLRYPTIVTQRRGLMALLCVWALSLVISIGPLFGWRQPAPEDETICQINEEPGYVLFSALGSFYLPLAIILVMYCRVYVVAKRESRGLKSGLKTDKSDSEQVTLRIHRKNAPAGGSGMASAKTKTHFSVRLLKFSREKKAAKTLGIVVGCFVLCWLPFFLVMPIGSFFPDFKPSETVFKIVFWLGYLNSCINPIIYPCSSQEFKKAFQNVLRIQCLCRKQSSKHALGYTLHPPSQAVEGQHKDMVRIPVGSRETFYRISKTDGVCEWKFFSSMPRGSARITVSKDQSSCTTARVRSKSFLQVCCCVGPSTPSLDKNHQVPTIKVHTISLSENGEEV
METHOD: Maximal response assayed via calcium mobilization to the human alpha-1A adrenergic receptor compared the percent of the […] phenylephrine response
Assay type: functional
This listing pairs compounds with measured Max response.
The reply should contain only the number, in %.

Previously resolved entries follow.
CCn1cc(-c2ccccc2NCC2=NCCN2)cn1 0
Cn1ncnc1-c1ccccc1NCC1=NCCN1 91
CCCn1nccc1-c1ccccc1NCC1=NCCN1 59
CCCn1ncnc1-c1ccccc1NCC1=NCCN1 96
Cn1ccnc1-c1ccccc1NCC1=NCCN1 88
Cc1ccc(-c2ccccc2NCC2=NCCN2)n1C 78
CC(C)n1ncnc1-c1ccccc1NCC1=NCCN1 104
FC(F)(F)Cn1ncnc1-c1ccccc1NCC1=NCCN1 91
c1ccc(-c2cc[nH]n2)c(NCC2=NCCN2)c1 104
CC(C)n1nccc1-c1ccccc1NCC1=NCCN1 0

Under UniProt P35348: Max response value of CCCCn1ncnc1-c1ccccc1NCC1=NCCN1 ?
86

Under UniProt P35348: Max response value of Cn1ccc(-c2ccccc2NCC2=NCCN2)n1 ?
116

Under UniProt P35348: Max response value of Cc1n[nH]c(-c2ccccc2NCC2=NCCN2)n1 ?
87

Under UniProt P35348: Max response value of Cn1nccc1-c1ccccc1NCC1=NCCN1 ?
108

Under UniProt P35348: Max response value of CCn1cccc1-c1ccccc1NCC1=NCCN1 ?
93

Under UniProt P35348: Max response value of Cn1cccc1-c1ccccc1NCC1=NCCN1 ?
103

Under UniProt P35348: Max response value of Cn1cc(-c2ccccc2NCC2=NCCN2)cn1 ?
39

Under UniProt P35348: Max response value of CCn1nccc1-c1ccccc1NCC1=NCCN1 ?
81

Under UniProt P35348: Max response value of FC(F)(F)Cn1nccc1-c1ccccc1NCC1=NCCN1 ?
76

Under UniProt P35348: Max response value of c1ccc(-c2cn[nH]c2)c(NCC2=NCCN2)c1 ?
112

Under UniProt P35348: Max response value of c1ccc(-c2nc[nH]n2)c(NCC2=NCCN2)c1 ?
135

Under UniProt P35348: Max response value of CCn1ccc(-c2ccccc2NCC2=NCCN2)n1 ?
78

Under UniProt P35348: Max response value of CCn1ncnc1-c1ccccc1NCC1=NCCN1 ?
107

Under UniProt P35348: Max response value of Cc1nc(-c2ccccc2NCC2=NCCN2)n(C)n1 ?
98
